Each recorded value in this set is attributed to patent US20260356823A1.

Target: UniProtKB Q9Y5Y9
Assay: In vitro inhibition IC50 of Nav1.8, whole-cell patch clamp on CHO cell line stably expressing Nav1.8 (SCN10A, NM_006514)
Details: CHO cells stably expressing Nav1.8, whole-cell patch clamp, room temperature
Readout type: IC50

1. [2H]C([2H])([2H])NS(=O)(=O)c1cc(NC(=O)[C@@H]2O[C@@](C)(C(F)(F)F)[C@@H](C)[C@H]2c2ccc(F)c(F)c2OC)ccn1 (relative stereo) [Example 82] :: < 1 nM
2. COc1c([C@H]2[C@H](C(=O)Nc3ccc4cn[nH]c(=O)c4c3)O[C@@](C)(C(F)(F)F)[C@H]2C)ccc(F)c1F (relative stereo) [Example 3] :: 9 nM
3. CONC(=O)c1cc(NC(=O)[C@@H]2O[C@@](C)(C(F)(F)F)[C@@H](C)[C@H]2c2ccc(F)c(F)c2OC)ccn1 (relative stereo) [Example 21] :: 26 nM
4. COc1c([C@H]2[C@H](C(=O)Nc3ccc(F)c(C(N)=O)c3)O[C@]3(C(F)(F)F)CC[C@]23C)ccc(F)c1F (relative stereo) [Example 85] :: < 1 nM
5. COc1c([C@H]2[C@H](C(=O)Nc3ccnc(S(N)(=O)=O)c3)O[C@]3(C(F)(F)F)CC[C@]23C)ccc(F)c1F (relative stereo) [Example 87] :: 3 nM

###

Target: human Nav1.8 (Homo sapiens)
Construct: expressed in transfected cells
Sequence (Q9Y5Y9 whole entry): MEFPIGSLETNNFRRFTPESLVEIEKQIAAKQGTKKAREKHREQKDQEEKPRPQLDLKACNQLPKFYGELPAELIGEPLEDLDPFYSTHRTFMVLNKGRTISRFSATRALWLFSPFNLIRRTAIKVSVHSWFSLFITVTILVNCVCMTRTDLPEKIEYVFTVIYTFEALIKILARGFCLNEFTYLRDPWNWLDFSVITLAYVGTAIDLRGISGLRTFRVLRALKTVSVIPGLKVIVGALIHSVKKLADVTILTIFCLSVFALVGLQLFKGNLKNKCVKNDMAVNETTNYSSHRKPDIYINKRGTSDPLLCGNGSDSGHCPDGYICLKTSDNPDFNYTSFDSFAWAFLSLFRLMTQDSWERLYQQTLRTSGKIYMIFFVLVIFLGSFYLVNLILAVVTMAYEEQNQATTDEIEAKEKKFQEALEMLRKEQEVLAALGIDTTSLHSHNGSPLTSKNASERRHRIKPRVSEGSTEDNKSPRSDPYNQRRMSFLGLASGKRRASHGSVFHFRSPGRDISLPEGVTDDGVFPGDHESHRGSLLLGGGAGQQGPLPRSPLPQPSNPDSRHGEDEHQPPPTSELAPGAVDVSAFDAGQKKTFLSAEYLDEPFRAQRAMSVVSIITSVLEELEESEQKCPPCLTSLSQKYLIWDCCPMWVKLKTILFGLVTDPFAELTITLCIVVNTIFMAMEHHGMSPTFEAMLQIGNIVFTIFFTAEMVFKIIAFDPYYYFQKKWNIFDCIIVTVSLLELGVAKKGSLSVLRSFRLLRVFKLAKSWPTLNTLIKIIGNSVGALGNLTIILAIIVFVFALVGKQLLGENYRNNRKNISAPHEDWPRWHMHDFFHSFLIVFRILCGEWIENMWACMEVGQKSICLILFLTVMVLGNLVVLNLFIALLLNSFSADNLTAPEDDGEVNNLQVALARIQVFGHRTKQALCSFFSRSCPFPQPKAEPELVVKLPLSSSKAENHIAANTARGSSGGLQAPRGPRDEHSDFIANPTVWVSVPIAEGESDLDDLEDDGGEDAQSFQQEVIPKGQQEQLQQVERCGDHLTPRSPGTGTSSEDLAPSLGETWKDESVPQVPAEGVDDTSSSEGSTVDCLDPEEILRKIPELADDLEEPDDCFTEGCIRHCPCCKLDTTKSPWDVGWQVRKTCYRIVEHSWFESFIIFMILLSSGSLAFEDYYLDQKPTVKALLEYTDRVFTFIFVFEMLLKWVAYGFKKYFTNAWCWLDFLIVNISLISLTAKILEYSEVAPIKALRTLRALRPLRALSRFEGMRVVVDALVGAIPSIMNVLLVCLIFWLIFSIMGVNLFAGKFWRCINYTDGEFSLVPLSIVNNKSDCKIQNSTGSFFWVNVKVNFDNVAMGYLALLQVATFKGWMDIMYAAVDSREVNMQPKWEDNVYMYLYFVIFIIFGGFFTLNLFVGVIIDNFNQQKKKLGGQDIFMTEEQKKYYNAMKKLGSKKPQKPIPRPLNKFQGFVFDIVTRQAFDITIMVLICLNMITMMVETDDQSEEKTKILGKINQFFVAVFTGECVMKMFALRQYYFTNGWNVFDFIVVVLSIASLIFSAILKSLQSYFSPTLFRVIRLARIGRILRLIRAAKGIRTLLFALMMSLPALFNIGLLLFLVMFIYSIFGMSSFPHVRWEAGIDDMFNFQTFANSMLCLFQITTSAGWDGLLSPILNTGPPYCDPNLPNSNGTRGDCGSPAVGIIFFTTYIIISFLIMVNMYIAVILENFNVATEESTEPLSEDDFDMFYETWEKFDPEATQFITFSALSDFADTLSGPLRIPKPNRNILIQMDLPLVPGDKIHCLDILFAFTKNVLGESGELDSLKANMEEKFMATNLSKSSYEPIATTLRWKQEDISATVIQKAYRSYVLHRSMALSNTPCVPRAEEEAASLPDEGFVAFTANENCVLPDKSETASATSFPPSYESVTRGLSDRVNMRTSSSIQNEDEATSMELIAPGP
Assay: In vitro inhibition of Nav1.8, manual patch clamp on HEK293 cells stably expressing human Nav1.8
Type: cell-based
Details: HEK293, 100 nM, human Nav1.8, manual patch clamp, read-out: Inhibitory activity (inhibition/% at 100 nM concentration)
Readout type: inhibition at 0.1 µM

1) COc1c([C@H]2[C@H](C(=O)Nc3ccc4c(c3)C(=O)NCC4)O[C@@](C)(C(F)(F)F)[C@H]2C)ccc(F)c1F (relative stereo) [Example 6] :: ≥ 50%
2) [2H]C([2H])([2H])NS(=O)(=O)c1cc(NC(=O)[C@@H]2O[C@@](C)(C(F)(F)F)[C@@H](C)[C@H]2c2ccc(F)c(F)c2OC)ccn1 (relative stereo) [Example 82] :: ≥ 50%
3) COc1c([C@H]2[C@H](C(=O)Nc3ccnc(N4CCN(C)CC4=O)c3)O[C@]3(C(F)(F)F)CC[C@]23C)ccc(F)c1F (relative stereo) [Example 100] :: ≥ 50%

###

Here the recorded IC50 is given for each entry.
Biological target: Nav1.8 sodium channel (Homo sapiens, UniProt Q9Y5Y9)
Sequence (Q9Y5Y9 whole entry): as above
Assay: In vitro inhibition IC50 of Nav1.8, whole-cell patch clamp on CHO cell line stably expressing Nav1.8 (SCN10A, NM_006514)
Details: CHO cells stably expressing Nav1.8, whole-cell patch clamp, room temperature
Readout type: IC50 (nM)

1) COc1c([C@H]2[C@H](C(=O)Nc3ccc4c(c3)NC(=O)C4)O[C@@](C)(C(F)(F)F)[C@H]2C)ccc(F)c1F (relative stereo) :: 67
2) COc1c([C@H]2[C@H](C(=O)Nc3ccnc(C(N)=O)c3)OC3(C(F)(F)F)CCC23C)ccc(F)c1F (relative stereo) :: 2
3) COc1c([C@H]2[C@H](C(=O)Nc3ccc4c(c3)C(=O)NCC4)O[C@@](C)(C(F)(F)F)[C@H]2C)ccc(F)c1F (relative stereo) :: 2
